Cited source: patent US10065950B2

Each entry below lists one item and its recorded pIC50 value.
Molecular target: HIV-1 pNL4-3 integrase (Human immunodeficiency virus type 1 group M subtype B (isolate NY5) (HIV-1), UniProt P12497)
Experiment: Determination of enzyme (HIV integrase) inhibitory activity
Conditions: calculated from inhibition rate (fluorescence)
In textbook form, pIC50 equals minus log to base ten of the concentration in mol/L.

Which value of pIC50 has been reported for COC[C@H]1CN(C(C)C)C(=O)c2c(O)c(=O)c(-c3nnc(Cc4ccc(F)cc4F)s3)cn21 [Example 85] in the records?
8.12

Any idea what pIC50 was measured for CC(=O)N(C)C[C@@H]1Cn2cc(-c3nnc(Cc4ccc(F)cc4)s3)c(=O)c(O)c2C(=O)N1C(C)C [Example 163] ?
8.11

Reported pIC50, compound CC(C)N1CC(CC(=O)N2CCOCC2)n2cc(-c3ncc(Cc4ccc(F)cc4F)s3)c(=O)c(O)c2C1=O (stereo not drawn) [Example 72] : ____
7.96

Param item = CN(C)C(=O)[C@@]1(C)CN(C(C)(C)C)C(=O)c2c(O)c(=O)c(-c3nnc(Cc4ccc(F)cc4)s3)cn21 [Example 181] ; retrieve measured pIC50.
7.85

Entry under review: CCNC(=O)CC1CN(C2CC2)C(=O)c2c(O)c(=O)c(-c3ncc(Cc4ccc(F)cc4F)s3)cn21 (stereo not drawn) [Example 165] . Reported pIC50?
8.13

GET /values?readout=pIC50&item= COC[C@@H]1Cn2cc(-c3nnc(Cc4ccc(F)cc4F)s3)c(=O)c(O)c2C(=O)N1C(C)C [Example 99]
8.21

Which value of pIC50 has been reported for COCCOC[C@H]1CN(CC(C)(C)C)C(=O)c2c(O)c(=O)c(-c3nnc(Cc4ccc(F)cc4)s3)cn21 [Example 123] in the records?
7.57

Which pIC50 is listed for CC(C)N1C(=O)c2c(O)c(=O)c(-c3nnc(Cc4ccc(F)cc4)s3)cn2C[C@@H]1C [Example 233] ?
8.19

Would you mind telling me what pIC50 value was observed for CC(C)N1CC(CC#N)n2cc(-c3ncc(Cc4ccc(F)cc4F)s3)c(=O)c(O)c2C1=O (stereo not drawn) [Example 49] ?
8.29

// lookup pIC50 for CCN(C)C(=O)CC1CN(C(C)C)C(=O)c2c(O)c(=O)c(-c3ncc(Cc4ccc(F)cc4F)s3)cn21 (stereo not drawn) [Example 76]
8.08

Fill in the blank: the reported pIC50 of CCNC(=O)[C@@]1(C)CN(C(C)(C)C)C(=O)c2c(O)c(=O)c(-c3nnc(Cc4ccc(F)cc4)s3)cn21 [Example 189] is ____.
7.70

Recorded pIC50 for CCN1C[C@](C)(C(=O)N2CC(OC)C2)n2cc(-c3ncc(Cc4ccc(F)cc4)s3)c(=O)c(O)c2C1=O [Example 263] , please?
8.05

Bench note: what pIC50 did CC1(C)Cn2cc(-c3nnc(Cc4ccc(F)cc4F)s3)c(=O)c(O)c2C(=O)N1C1CCOC1 (stereo not drawn) [Example 70] show?
8.05

Given CCNC(=O)C1(C)CN(CC)C(=O)c2c(O)c(=O)c(-c3ncc(Cc4ccc(F)cc4F)s3)cn21 (stereo not drawn) [Example 162] , state its recorded pIC50.
8.15

Name the reported pIC50 value associated with the compound COC[C@H]1[C@H](C)N(C(C)C)C(=O)c2c(O)c(=O)c(-c3nnc(Cc4ccc(F)cc4)s3)cn21 [Example 285]
7.96

---

Parameter IC50: see the listing below.
Target: HIV-1 pNL4-3 integrase (Human immunodeficiency virus type 1 group M subtype B (isolate NY5) (HIV-1), UniProt P12497)
Test: Determination of enzyme (HIV integrase) inhibitory activity
Conditions: calculated from inhibition rate (fluorescence)
Give just the number in nM; leave the unit off.

compound="COCC1(C)CN(C(C)C)C(=O)c2c(O)c(=O)c(-c3ncc(Cc4ccc(F)cc4)s3)cn21 (stereo not drawn)" endpoint_unit=nM number=18
compound=CC(C)[C@H]1Cn2cc(-c3nnc(Cc4ccc(F)cc4)s3)c(=O)c(O)c2C(=O)N1C(C)C endpoint_unit=nM number=7.3
compound=CCN1C(=O)c2c(O)c(=O)c(-c3ncc(Cc4ccc(F)cc4)s3)cn2C[C@H]1C endpoint_unit=nM number=6.4
compound=CN(C)C(=O)[C@@]1(C)CN(C)C(=O)c2c(O)c(=O)c(-c3nnc(Cc4ccc(F)cc4)s3)cn21 endpoint_unit=nM number=9.7
compound="CC(C)N1CC(C)(C(=O)N(C)C)n2cc(-c3ncc(Cc4ccc(F)cc4F)s3)c(=O)c(O)c2C1=O (stereo not drawn) [Example 152]" endpoint_unit=nM number=5.9

Entry "COCCOC[C@H]1CN(CC2CC2)C(=O)c2c(O)c(=O)c(-c3nnc(Cc4ccc(F)cc4F)s3)cn21" : reported IC50 = ?
11

Fill in: IC50 of "CC(C)N1C(=O)c2c(O)c(=O)c(-c3nnc(Cc4ccc(F)cc4)s3)cn2C[C@@]1(C)C(=O)N(C)C" is ___
8.8

Recorded IC50 for "COCCOC[C@@H]1Cn2cc(-c3nnc(Cc4ccc(F)cc4F)s3)c(=O)c(O)c2C(=O)N1CC(C)C" , please?
6.9

GET /values?readout=IC50&item= "CCC(C)(C)C(=O)N(C)C[C@@H]1Cn2cc(-c3nnc(Cc4ccc(F)cc4)s3)c(=O)c(O)c2C(=O)N1C(C)C"
10

Dear colleague, I am looking for the recorded IC50 of the following compound: "CCN(C)C(=O)[C@]1(COC)CN(C(C)C)C(=O)c2c(O)c(=O)c(-c3nnc(Cc4ccc(F)cc4)s3)cn21"
15

---

Listed here are molecules together with their documented pIC50.
Molecular target: HIV-1 pNL4-3 integrase (Human immunodeficiency virus type 1 group M subtype B (isolate NY5) (HIV-1), UniProt P12497)
Assay: Determination of enzyme (HIV integrase) inhibitory activity
Conditions: calculated from inhibition rate (fluorescence)
Conceptually, pIC50 converts a concentration in mol/L into minus its log10.

Solved entries:
molecule="CCN1C[C@@](C)(C(=O)N(C)C)n2cc(-c3ncc(Cc4ccc(F)cc4)s3)c(=O)c(O)c2C1=O [Example 248]" measure_name=pIC50 number=7.85
molecule="COC[C@H]1CN([C@H](C)C(C)C)C(=O)c2c(O)c(=O)c(-c3nnc(Cc4ccc(F)cc4F)s3)cn21 [Example 148]" measure_name=pIC50 number=8.01

Entry CC(C)N1C[C@H](Cn2cncn2)n2cc(-c3nnc(Cc4ccc(F)cc4)s3)c(=O)c(O)c2C1=O [Example 358] has what pIC50?
7.92

Dear colleague, I am looking for the recorded pIC50 of the following molecule: CC(C)N1C(=O)c2c(O)c(=O)c(-c3nnc(Cc4ccc(F)cc4F)s3)cn2C[C@H]1CNC(=O)C(C)(C)C [Example 138]
7.96

---

IC50: recorded values
Biological target: HIV-1 pNL4-3 integrase (Human immunodeficiency virus type 1 group M subtype B (isolate NY5) (HIV-1))
Test: Determination of enzyme (HIV integrase) inhibitory activity
Conditions: calculated from inhibition rate (fluorescence)
Only the number, expressed in nM, is required.

Sample answers from the record:
compound="COCC1CN(CC(C)C)C(=O)c2c(O)c(=O)c(-c3nnc(Cc4ccc(F)cc4F)s3)cn21 (stereo not shown)" measure_name=IC50 number=8.3
compound=CCN1C(=O)c2c(O)c(=O)c(-c3nnc(Cc4ccc(F)cc4)s3)cn2C[C@@H]1C(C)C measure_name=IC50 number=8
compound="CCC(OC)[C@H]1CN(C(C)C)C(=O)c2c(O)c(=O)c(-c3nnc(Cc4ccc(F)cc4)s3)cn21 (stereo partly shown) [Example 382]" measure_name=IC50 number=8.7
compound=CO[C@@H]1CCN(C(=O)[C@@]2(C)CN(C(C)C)C(=O)c3c(O)c(=O)c(-c4nnc(Cc5ccc(F)cc5)s4)cn32)C1 measure_name=IC50 number=16
compound=CC(C)NC(=O)[C@]1(C)Cn2cc(-c3nnc(Cc4ccc(F)cc4)s3)c(=O)c(O)c2C(=O)N1C(C)C measure_name=IC50 number=13
compound=COC[C@H]1CN(C(C)C)C(=O)c2c(O)c(=O)c(-c3nnc(CCc4ccc(F)cc4)s3)cn21 measure_name=IC50 number=14

Could you tell me which IC50 is on file for CC(C)N1CC(CN)n2cc(-c3ncc(Cc4ccc(F)cc4F)s3)c(=O)c(O)c2C1=O (stereo not shown) ?
6.4

---

Molecular target: HIV-1 pNL4-3 integrase (Human immunodeficiency virus type 1 group M subtype B (isolate NY5) (HIV-1))
Test: Determination of enzyme (HIV integrase) inhibitory activity
Conditions: calculated from inhibition rate (fluorescence)
Mark Met only when IC50 stays strictly below 9 nM. Values equal to the cut-off are Not met.

Known results for compounds:
compound="CCN1C(=O)c2c(O)c(=O)c(-c3ncc(Cc4ccc(F)cc4)s3)cn2C[C@]1(C)C(=O)N1CCCC1 [Example 294]" class_assignment="Not met"
compound="COC[C@H]1CN([C@H](C)C2CC2)C(=O)c2c(O)c(=O)c(-c3nnc(Cc4ccc(F)cc4)s3)cn21 [Example 302]" class_assignment="Not met"
compound="CC(C)OC[C@H]1CN(C(C)C)C(=O)c2c(O)c(=O)c(-c3nnc(Cc4ccc(F)cc4)s3)cn21 [Example 365]" class_assignment="Not met"
compound="CC(C)N1C[C@@](C)(C(=O)N(C)C)n2cc(-c3ncc(Cc4ccc(F)cc4)s3)c(=O)c(O)c2C1=O [Example 234]" class_assignment="Not met"

Consider the compound CCOc1cc(F)ccc1Cc1nnc(-c2cn3c(c(O)c2=O)C(=O)N(C(C)C)C[C@@H]3COC)s1 [Example 219] . Is its IC50 strictly less than 9 nM?
Not met

Input COCCOC[C@@H]1Cn2cc(-c3nnc(Cc4ccc(F)cc4)s3)c(=O)c(O)c2C(=O)N1C(C)C [Example 83] ; condition: IC50 strictly below 9 nM. Does it hold?
Met

Is it true that IC50 reported for CC(C)N1C(=O)c2c(O)c(=O)c(-c3nnc(Cc4ccc(F)cc4F)s3)cn2CC1CO (centres unmarked) [Example 37] is less than 9 nM?
Met

# strict comparison: is reported IC50 < 9 nM? input = CC(C)N1C[C@](C)(C(=O)N(C)C)n2cc(-c3nnc(Cc4ccc(F)cc4)s3)c(=O)c(O)c2C1=O [Example 177]
Not met

API: query returns whether the compound falls strictly under 9 nM in IC50. Query: CCN1C(=O)c2c(O)c(=O)c(-c3nnc(Cc4ccc(F)cc4F)s3)cn2C[C@H]1COC [Example 102]
Met

Strictly below 9 nM: is that where IC50 of COCCOC[C@@H]1Cn2cc(-c3nnc(Cc4ccc(F)cc4F)s3)c(=O)c(O)c2C(=O)N1C(C)C [Example 54] sits?
Met

Find out if reported IC50 for CC(C)N1CC(C)(C(=O)N2CCCC2)n2cc(-c3ncc(Cc4ccc(F)cc4F)s3)c(=O)c(O)c2C1=O (centres unmarked) [Example 39] is less than 9 nM
Not met

Hello, I'm reviewing records and need to know if IC50 of CC(C)NC(=O)C1CN(C(C)C)C(=O)c2c(O)c(=O)c(-c3ncc(Cc4ccc(F)cc4F)s3)cn21 (centres unmarked) [Example 31] is below 9 nM. Could you check?
Met

Dear reviewer, please state whether CC(C)N1C[C@@](C)(C(=O)N2CCCC2)n2cc(-c3nnc(Cc4ccc(F)cc4F)s3)c(=O)c(O)c2C1=O [Example 172] has IC50 strictly beneath 9 nM.
Not met
